Reference source: PubChem BioAssay AID624167

subject-of-test: PEG-3 (UniProt Q6IN02)
Sequence (Q6IN02 whole entry, looked up): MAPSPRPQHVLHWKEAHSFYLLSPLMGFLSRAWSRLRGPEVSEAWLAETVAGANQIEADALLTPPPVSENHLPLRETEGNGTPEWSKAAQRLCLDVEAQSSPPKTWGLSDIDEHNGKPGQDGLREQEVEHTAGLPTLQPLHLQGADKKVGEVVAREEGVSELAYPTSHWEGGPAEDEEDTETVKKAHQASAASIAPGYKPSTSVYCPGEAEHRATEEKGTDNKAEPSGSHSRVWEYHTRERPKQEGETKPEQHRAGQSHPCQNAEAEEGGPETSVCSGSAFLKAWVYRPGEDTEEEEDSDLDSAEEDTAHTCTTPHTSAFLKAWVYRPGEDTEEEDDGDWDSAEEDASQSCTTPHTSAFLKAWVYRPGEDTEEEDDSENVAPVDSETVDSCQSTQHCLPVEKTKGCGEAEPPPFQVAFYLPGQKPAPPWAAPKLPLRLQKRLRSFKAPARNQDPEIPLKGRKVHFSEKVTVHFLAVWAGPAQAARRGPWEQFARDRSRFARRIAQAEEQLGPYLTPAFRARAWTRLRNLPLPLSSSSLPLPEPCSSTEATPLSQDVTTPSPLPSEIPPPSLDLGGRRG
protocol-description: Peg3 promoter luciferase inhibitors, potency, dose response, cell-based, HeLa, CREF/GAPDH counter-screen panel (AID 624167)
cond: HeLa PEG-Prom luciferase reporter, overnight, CREF/GAPDH counter-screens, mean of runs
Active and inactive are the calls of the source.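 Rule for the calls: active = mean IC50 for reducing PEG3 promoter reporter signal at or below a set limit, with IC50 above the limit in both counter screens; inactive = the rest, including counter screen hits.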
Outcomes: active, inactive

>  <compound>
Cc1ccccc1-c1nc(-c2ccccn2)no1

>  <group>
active

$$$$
>  <compound>
CN(C)S(=O)(=O)c1ccc(-c2csc(N/N=C/c3ccc(O)cc3)n2)cc1

>  <group>
active

$$$$
>  <compound>
Cc1cc(C)c2ccc(N)nc2c1O

>  <group>
active

$$$$
>  <compound>
CN[C@H]1C[C@H]2c3[nH]c4ccc(-c5ccc(OC)cc5)cc4c3CCN2C(=O)[C@H]1[C@H](C)O

>  <group>
active

$$$$
>  <compound>
CCOc1ccc(OCc2cccc(C(=O)O)c2)cc1

>  <group>
active

$$$$
>  <compound>
COc1cccc(NC(=O)Nc2cccc(C(=O)O)c2)c1

>  <group>
inactive

$$$$
>  <compound>
O=C(Nc1nc2cc3c(cc2s1)OCCO3)C1=COCCO1

>  <group>
active

$$$$
>  <compound>
CN(C)c1ccc(/C=C/c2ccc3c4ccccc4ccc3[n+]2-c2ccccc2)cc1

>  <group>
active

$$$$
>  <compound>
Cc1c(C)c2ccc(OCC(=O)Nc3ccccn3)c(C)c2oc1=O

>  <group>
active

$$$$
>  <compound>
Cc1cc(Br)ccc1NC(=O)CN1C(=O)C2C3CC(c4ccccc4)C(C3)C2C1=O (centres undefined)

>  <group>
inactive

$$$$
>  <compound>
CCOC(=O)c1ccc(NC(=O)C2CCCN(S(=O)(=O)c3ccc(F)cc3)C2)cc1 (centres undefined)

>  <group>
inactive

$$$$
>  <compound>
Cc1cc(C)c2nc(NNC(=O)c3ccc(S(=O)(=O)N4CC(C)CC(C)C4)cc3)sc2c1 (centres undefined)

>  <group>
active

$$$$
>  <compound>
CC(=O)c1cccc(-c2csc3ncnc(Sc4nnnn4C)c23)c1

>  <group>
active

$$$$
>  <compound>
CCOc1ccc(NC(=O)c2ccccn2)cc1

>  <group>
active

$$$$
>  <compound>
CCN(CC)CCN1CCN(c2cncc(-c3ccc4ccccc4c3)n2)CC1

>  <group>
inactive

$$$$
>  <compound>
Cc1cc(C)c2c(N)c(C(=O)Nc3ncc(C)s3)sc2n1

>  <group>
active

$$$$
>  <compound>
O=c1c(Cl)c(N2CCCCC2)cnn1-c1nc2ccccc2[nH]1

>  <group>
active

$$$$
>  <compound>
COc1cc(SC)ccc1C(=O)Nc1nc(C)cs1

>  <group>
active

$$$$
>  <compound>
CN(C)CCNc1ncnc2c1sc1nc(N3CCCC3)c3c(c12)CC(C)(C)OC3

>  <group>
inactive

$$$$
>  <compound>
CC(C)(C)OC(=O)CC(S(=O)(=O)c1ccccc1)S(=O)(=O)c1ccccc1

>  <group>
active

$$$$
>  <compound>
COc1ccc2nc3n(c(=O)c2c1)-c1cc2ccccc2cc1C(=O)NC3Cc1ccc(O)cc1 (centres undefined)

>  <group>
active

$$$$
>  <compound>
COc1cc(NC(=O)c2cccc(C)c2)ccc1NC(=O)c1cc2ccccc2o1

>  <group>
active

$$$$
>  <compound>
COC(=O)c1c(NC(=O)c2ccc([N+](=O)[O-])o2)sc2c1CCN(C(C)C)C2

>  <group>
active

$$$$
>  <compound>
Cc1ccccc1NC(=O)Nc1nc(C(N)C2CCCCC2)cs1 (centres undefined)

>  <group>
inactive

$$$$

* * *

Test system: Rat fibroblasts (CREF)
protocol-description: Peg3 promoter luciferase inhibitors, potency, dose response, cell-based, HeLa, CREF/GAPDH counter-screen panel (AID 624167)
cond: CREF/GAPDH counter-screens, run 2, dose range 1, individual replicate IC50 per panel

>  <molecule>
CCc1ccn2cc(-c3ccc4c(c3)OCO4)nc2c1

>  <IC50>
> 100 µM

$$$$
>  <molecule>
CCCCC(=O)NC(c1ccccc1OC)c1ccc2cccnc2c1O (configuration not stated)

>  <IC50>
> 100 µM

$$$$
>  <molecule>
O=C(c1ccco1)N1CCN(C(c2ccccc2Cl)c2nnnn2Cc2cccs2)CC1 (configuration not stated)

>  <IC50>
> 100 µM

$$$$
>  <molecule>
COC1CC(C)C(OC)c2cc(O)cc(c2O)NC(=O)C(C)=CC=CC(C)C(OC(N)=O)C(C)=CC(C)C1OC (configuration not stated)

>  <IC50>
> 100 µM

$$$$
>  <molecule>
CC(=O)OC1CC[C@]2(C#N)[C@H]3CC[C@]4(C)[C@H](C5C=CC(=O)O5)CCC4(O)C3CCC2(O)C1 (some centres not stated)

>  <IC50>
> 100 µM

$$$$
>  <molecule>
O=C(Nc1nc2ccccc2[nH]1)c1ccccc1F

>  <IC50>
1.68 µM

$$$$
>  <molecule>
COCCn1c(C)cc(C(=O)CSc2nnc(C)s2)c1C

>  <IC50>
10.8 µM

$$$$
>  <molecule>
Cc1csc(NC(=O)c2ccc(N3CCCC3=O)cc2)n1

>  <IC50>
6.17 µM

$$$$
>  <molecule>
O=C(Nc1ccccc1)c1nc[nH]c1C(=O)NCCCCCCNC(=O)c1[nH]cnc1C(=O)Nc1ccccc1

>  <IC50>
> 100 µM

$$$$
>  <molecule>
Cc1ccc(/C=C2\SC(=S)N(CCCC(=O)Nc3ccccn3)C2=O)cc1

>  <IC50>
> 100 µM

$$$$
>  <molecule>
COc1ccc(C(NC(C)=O)c2ccc3cccnc3c2O)c(OC)c1 (configuration not stated)

>  <IC50>
> 100 µM

$$$$
>  <molecule>
O=c1c(Cl)c(N2CCCCC2)cnn1-c1nc2ccccc2[nH]1

>  <IC50>
0.618 µM

$$$$

* * *

subject-of-test: PEG-3 (UniProt Q6IN02)
protocol-description: Peg3 promoter luciferase inhibitors, potency, dose response, cell-based, HeLa, CREF/GAPDH counter-screen panel (AID 624167)
cond: HeLa PEG-Prom luciferase reporter, overnight, CREF/GAPDH counter-screens, mean of runs
The source made the active and inactive calls.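 Rule for the calls: active = mean IC50 for reducing PEG3 promoter reporter signal at or below a set limit, with IC50 above the limit in both counter screens; inactive = the rest, including counter screen hits.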
Outcomes: TRUE (active), FALSE (inactive)

>  <compound>
Cc1cc(C=C2C(=O)c3ccccc3C2=O)c(C)n1-c1ccccc1

>  <subject-of-test>
PEG-3 (UniProt Q6IN02)

>  <group>
FALSE

$$$$
>  <compound>
OCCNCc1cc(Br)ccc1OCc1ccc(Cl)cc1Cl

>  <subject-of-test>
PEG-3 (UniProt Q6IN02)

>  <group>
TRUE

$$$$
>  <compound>
CC(C)(C)c1ccc(C(=O)O/N=C(\N)c2ccccn2)cc1

>  <subject-of-test>
PEG-3 (UniProt Q6IN02)

>  <group>
FALSE

$$$$
>  <compound>
O=C(O)c1ccc(N/N=C/c2ccc3c(c2)OCO3)cc1

>  <subject-of-test>
PEG-3 (UniProt Q6IN02)

>  <group>
TRUE

$$$$
>  <compound>
c1ccc(C[C@H]2CNCCN2CCCCC2CCCCC2)cc1

>  <subject-of-test>
PEG-3 (UniProt Q6IN02)

>  <group>
TRUE

$$$$
>  <compound>
CC(/C=C/c1ccccc1)=N/NC(=O)c1cc([N+](=O)[O-])cc([N+](=O)[O-])c1

>  <subject-of-test>
PEG-3 (UniProt Q6IN02)

>  <group>
FALSE

$$$$
>  <compound>
CN(C)CC(O)COc1ccc(C(C)(C)c2ccc(OCC(O)CN(C)C)cc2)cc1 (stereo not given)

>  <subject-of-test>
PEG-3 (UniProt Q6IN02)

>  <group>
FALSE

$$$$
>  <compound>
COc1ccc(CC(N)c2csc(NC(=O)Nc3cc(OC)ccc3OC)n2)cc1 (stereo not given)

>  <subject-of-test>
PEG-3 (UniProt Q6IN02)

>  <group>
TRUE

$$$$
>  <compound>
COc1cc(NS(C)(=O)=O)ccc1Nc1c2ccccc2nc2ccccc12

>  <subject-of-test>
PEG-3 (UniProt Q6IN02)

>  <group>
TRUE

$$$$
>  <compound>
O=C(O)c1cccc(COc2ccc3c(c2)CCC3)c1

>  <subject-of-test>
PEG-3 (UniProt Q6IN02)

>  <group>
TRUE

$$$$
>  <compound>
Cc1ccc(-c2cc(C(=O)Nc3nccs3)c3ccccc3n2)c(C)c1

>  <subject-of-test>
PEG-3 (UniProt Q6IN02)

>  <group>
FALSE

$$$$
>  <compound>
COc1cc(OC)c2cc(C(=O)N/N=C/c3ccccc3O)[nH]c2c1

>  <subject-of-test>
PEG-3 (UniProt Q6IN02)

>  <group>
TRUE

$$$$
>  <compound>
Cc1cc(S(=O)(=O)c2ccc(Cl)cc2)nc(S(=O)(=O)c2ccc(Cl)cc2)c1C#N

>  <subject-of-test>
PEG-3 (UniProt Q6IN02)

>  <group>
TRUE

$$$$
>  <compound>
CCN(CCCl)c1cc(CN(C)C)cc(NC(=O)c2ccc(C(=O)Nc3cc(CN(C)C)cc(N(CC)CCCl)c3)cc2)c1

>  <subject-of-test>
PEG-3 (UniProt Q6IN02)

>  <group>
TRUE

$$$$
>  <compound>
NCCCNc1nc(N)c([N+](=O)[O-])c(NC2CCCCC2)n1

>  <subject-of-test>
PEG-3 (UniProt Q6IN02)

>  <group>
TRUE

$$$$
>  <compound>
COc1ccc(CN(C)C(=O)c2cc(-c3ccc(C)cc3C)nc3ccccc23)c(OC)c1OC

>  <subject-of-test>
PEG-3 (UniProt Q6IN02)

>  <group>
TRUE

$$$$
>  <compound>
Clc1ccccc1/C=C/c1nc(-c2ccccn2)no1

>  <subject-of-test>
PEG-3 (UniProt Q6IN02)

>  <group>
FALSE

$$$$
>  <compound>
Cc1ccc(C(=O)N2CCN(c3ccc([N+](=O)[O-])c(NCc4cccnc4)c3)CC2)cc1

>  <subject-of-test>
PEG-3 (UniProt Q6IN02)

>  <group>
TRUE

$$$$
>  <compound>
Cc1ccc(NC(=O)Nc2ccnc(-c3cccnc3)n2)cc1

>  <subject-of-test>
PEG-3 (UniProt Q6IN02)

>  <group>
FALSE

$$$$
>  <compound>
O=C(CCl)Nc1ccccc1Sc1ccc(Cl)cc1

>  <subject-of-test>
PEG-3 (UniProt Q6IN02)

>  <group>
TRUE

$$$$
>  <compound>
O=C(Nc1ccc2oc(-c3ccncc3)nc2c1)c1ccc([N+](=O)[O-])o1

>  <subject-of-test>
PEG-3 (UniProt Q6IN02)

>  <group>
TRUE

$$$$
>  <compound>
CC(=O)c1ccc(-c2cnc3c(NC=O)cc(-c4ccccc4Oc4ccccc4)cn23)cc1

>  <subject-of-test>
PEG-3 (UniProt Q6IN02)

>  <group>
TRUE

$$$$
>  <compound>
CCOc1cc(/C=N/N=C(N)N)ccc1OCc1ccc(Cl)cc1

>  <subject-of-test>
PEG-3 (UniProt Q6IN02)

>  <group>
TRUE

$$$$
>  <compound>
O=[N+]([O-])c1nn(-c2ccc3c(c2)OCCO3)n(O)c1=Nc1ccc(Cl)cc1

>  <subject-of-test>
PEG-3 (UniProt Q6IN02)

>  <group>
TRUE

$$$$
>  <compound>
C/C(=N\NC(=O)c1cc(C2CC2)nc2ccccc12)c1ccc(O)cc1O

>  <subject-of-test>
PEG-3 (UniProt Q6IN02)

>  <group>
TRUE

$$$$
>  <compound>
Cc1ccc2[nH]c3c(c2c1)CCCC3NC(=O)CCl (stereo not given)

>  <subject-of-test>
PEG-3 (UniProt Q6IN02)

>  <group>
FALSE

$$$$
>  <compound>
COC(=O)C1=C(C)N(Cc2ccccc2)C(=NCCc2c[nH]c3ccccc23)N[C@H]1c1cccc(C(F)(F)F)c1

>  <subject-of-test>
PEG-3 (UniProt Q6IN02)

>  <group>
FALSE

$$$$
>  <compound>
CS(=O)(=O)c1ccc(C(=O)NCCN2C(=O)S/C(=C\c3cccnc3)C2=O)cc1[N+](=O)[O-]

>  <subject-of-test>
PEG-3 (UniProt Q6IN02)

>  <group>
TRUE

$$$$
>  <compound>
CCc1ccc(NC(=O)CSc2nc3ccccc3c(=O)n2CCCN2CCC(C)CC2)cc1

>  <subject-of-test>
PEG-3 (UniProt Q6IN02)

>  <group>
TRUE

$$$$
>  <compound>
COc1ccc(C2c3c(ncn(CCCN4CCOCC4)c3=N)Oc3ccc4ccccc4c32)cc1OC (stereo not given)

>  <subject-of-test>
PEG-3 (UniProt Q6IN02)

>  <group>
TRUE

$$$$
>  <compound>
O=C(CNC(=O)C(c1ccccc1)c1ccccc1)N/N=C/c1ccc(O)cc1O

>  <subject-of-test>
PEG-3 (UniProt Q6IN02)

>  <group>
FALSE

$$$$
>  <compound>
CCC(c1nnnn1-c1ccc2c(c1)OCCO2)N1CCC(n2c(=O)[nH]c3ccccc32)CC1 (stereo not given)

>  <subject-of-test>
PEG-3 (UniProt Q6IN02)

>  <group>
TRUE

$$$$
>  <compound>
CCOc1cccc2sc(N(CCCN(C)C)C(=O)c3ccc(S(=O)(=O)N(CC)Cc4ccccc4)cc3)nc12

>  <subject-of-test>
PEG-3 (UniProt Q6IN02)

>  <group>
TRUE

$$$$
>  <compound>
COc1ccc(CCn2c(=N)c(C(=O)NC3CCCC3)cc3c(=O)n4cccc(C)c4nc32)cc1

>  <subject-of-test>
PEG-3 (UniProt Q6IN02)

>  <group>
FALSE

$$$$
>  <compound>
c1cc2c3c(cccc3c1)NC1(CCC3(CC1)Nc1cccc4cccc(c14)N3)N2

>  <subject-of-test>
PEG-3 (UniProt Q6IN02)

>  <group>
FALSE

$$$$
